target: CYP2C9 (Homo sapiens); assay: CYP2C9 inhibition, probe/drug metabolism in human liver microsomes; conditions: IC50 against metabolism of glibenclamide mediated by CYP2C9, substrate glibenclamide 50 μM, 30 min
Sequence (P11712 whole entry): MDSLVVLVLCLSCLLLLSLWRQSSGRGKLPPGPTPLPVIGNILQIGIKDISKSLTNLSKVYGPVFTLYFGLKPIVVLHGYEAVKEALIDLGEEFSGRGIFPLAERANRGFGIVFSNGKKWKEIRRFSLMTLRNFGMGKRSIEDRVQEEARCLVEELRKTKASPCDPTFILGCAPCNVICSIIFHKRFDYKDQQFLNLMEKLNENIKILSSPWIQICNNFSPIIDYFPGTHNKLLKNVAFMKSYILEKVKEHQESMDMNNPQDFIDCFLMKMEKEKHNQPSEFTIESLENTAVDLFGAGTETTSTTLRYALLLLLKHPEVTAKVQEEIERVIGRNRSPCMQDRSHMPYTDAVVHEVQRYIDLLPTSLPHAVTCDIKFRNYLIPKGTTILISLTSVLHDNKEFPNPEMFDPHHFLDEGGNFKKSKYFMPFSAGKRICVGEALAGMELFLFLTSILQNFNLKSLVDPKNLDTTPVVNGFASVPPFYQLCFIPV
measurement name: IC50

# query: IC50 of entry CC(CCC(O)C(C)(O)CO)C1CCC2(C)C3=C(C(=O)CC12C)C1(C)CCC(=O)C(C)(C)C1CC3 (stereo not shown) [Compound 25, ganodrol C]
10.3 µM

---

Target: UniProt:P05177
Sequence (P05177 1-516): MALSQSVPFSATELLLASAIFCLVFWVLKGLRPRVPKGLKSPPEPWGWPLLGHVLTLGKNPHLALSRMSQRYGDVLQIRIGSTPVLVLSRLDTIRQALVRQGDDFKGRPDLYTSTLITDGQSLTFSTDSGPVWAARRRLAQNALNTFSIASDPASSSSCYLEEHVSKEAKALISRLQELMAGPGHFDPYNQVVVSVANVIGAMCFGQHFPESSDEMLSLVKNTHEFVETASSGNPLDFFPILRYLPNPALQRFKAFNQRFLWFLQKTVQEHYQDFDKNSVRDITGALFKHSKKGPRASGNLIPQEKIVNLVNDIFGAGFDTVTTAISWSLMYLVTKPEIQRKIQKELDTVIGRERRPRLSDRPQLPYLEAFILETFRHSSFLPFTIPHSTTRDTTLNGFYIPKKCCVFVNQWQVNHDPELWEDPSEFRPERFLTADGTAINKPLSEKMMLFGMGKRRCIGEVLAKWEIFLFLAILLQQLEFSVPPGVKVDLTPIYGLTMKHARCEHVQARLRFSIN
Experiment: CYP1A2 inhibition, probe/drug metabolism in human liver microsomes (LC-MS/MS)
Conditions: IC50 against CYP 1A2, substrate phenacetin 40 μM, HLM
# IC50 listing for each entry below
State just the number; it will be interpreted in µM.

>>> print(df.to_string())
                                   compound  readout_value
0  CC(=CC(=O)CC(C)C(=O)O)C1CC(=O)C2(C)C3=C(C(=O)C(O)C12C)C1(C)CCC(O)C(C)(C)C1CC3=O (stereo not drawn)           21.8
1  CC(CC(=O)CC(C)C1CC(=O)C2(C)C3=C(C(=O)CC12C)C1(C)CCC(=O)C(C)(CO)C1CC3O)C(=O)O (stereo not drawn)           11.3
2  CC(CC(=O)CC(C)C1CC(=O)C2(C)C3=C(C(=O)C(O)C12C)C1(C)CCC(=O)C(C)(CO)C1CC3O)C(=O)O (stereo not drawn)             14
3  CC(=CC(=O)CC(C)C(=O)O)C1CC(=O)C2(C)C3=C(C(=O)CC12C)C1(C)CCC(=O)C(C)(C)C1CC3O (stereo not drawn)           38.6
4  CC(=O)OC1C(=O)C2=C(C(=O)CC3C2(C)CCC(O)C3(C)C)C2(C)C(=O)CC(C3(C)CCC(=O)O3)C12C (stereo not drawn)           34.2

Need IC50 of CC(CC(=O)CC(C)C1CC(=O)C2(C)C3=C(C(=O)CC12C)C1(C)CCC(O)C(C)(CO)C1CC3O)C(=O)O (stereo not drawn) , thanks.
16

These data points were gathered from paper PMC11605156.
